Data origin: patent US9073946B2

system: HeLa cells; experiment: MTS assay to determine cytotoxicity; conditions: MTS assay, human cells treated for 48 hours; FIG. 1C
attribute measured: CC50

Bench note: what CC50 did `Cc1nc2c(ccc3nc(NC(=O)c4cccc(Br)c4)sc32)s1` show?
> 20 µM
